System: LOX IMVI melanoma
protocol.summary: NCI tumour cell line growth inhibition, 48 h
property: TGI

| molecule | assayed.target | recorded.measurement |
| --- | --- | --- |
| c1ncc(C23C4C5C6C4C2C6C53)[nH]1 (configuration not stated) | LOX IMVI melanoma | > 100 µM |
| CCCNc1c(Cl)cc(Cl)c2[nH]c3ccccc3c(=O)c12 | LOX IMVI melanoma | > 100 µM |
| CN(N=O)C(N)=NC(=O)c1ccccc1 | LOX IMVI melanoma | > 100 µM |
| COC1C2c3ccccc3C(C#N)(Cc3ccc4c(c32)OCO4)N1C(=O)c1ccccc1 (configuration not stated) | LOX IMVI melanoma | > 100 µM |
| Oc1ccc(-c2nc(-c3ccc(F)cc3)c(-c3ccncc3)[nH]2)cc1 | LOX IMVI melanoma | > 100 µM |
| COc1cccc(C2C3=C(COC3=O)N(CCO)c3cc4c(cc32)CCC4)c1 (configuration not stated) | LOX IMVI melanoma | > 37.1 µM |
| CC(C)Cn1cnnc1NS(=O)(=O)c1cc(C(=O)NN)c(Cl)cc1S | LOX IMVI melanoma | > 10 µM |
| COc1ccc(/C=N/Nc2nc3ccccc3c(=O)n2-c2ccccc2)cc1 | LOX IMVI melanoma | > 100 µM |
| CCOC(=O)/C(C#N)=N\Nc1ccc(-n2c(C)nc3ccc(Br)cc3c2=O)cc1 | LOX IMVI melanoma | > 100 µM |
| COC(=O)CC(CC(=O)C(=O)OC)C(=O)OC (configuration not stated) | LOX IMVI melanoma | > 100 µM |
| CC1(c2nc3ccccc3[nH]2)CCC(CO)C(C)(C)O1 (configuration not stated) | LOX IMVI melanoma | > 100 µM |
| O=C(O)Cc1ccccc1 | LOX IMVI melanoma | > 2000 µM |
| CC(=O)Nc1ccc2c(c1)C(=Nc1ccc(C(=O)O)cc1)c1ccccc1-2 | LOX IMVI melanoma | > 100 µM |
| COc1ccc(Nc2nc3c(N)cc(C(F)(F)F)cc3nc2-c2ccccc2)cc1 | LOX IMVI melanoma | > 100 µM |
| O=c1[nH]nc(Cc2ccc(Cl)cc2)n1Nc1ccccc1 | LOX IMVI melanoma | > 100 µM |
| CSC(=S)Nc1cc(C)ccn1 | LOX IMVI melanoma | > 100 µM |
| COc1ccc(-n2c(-c3ccccc3)cc(-c3cccs3)c2-c2cccs2)cc1 | LOX IMVI melanoma | > 100 µM |
| COc1cc([C@@H]2c3cc4c(cc3[C@@H](N=Cc3ccc(C(=O)O[C@H]5C[C@H]6OC[C@@]6(OC(C)=O)[C@H]6[C@H](OC(=O)c7ccccc7)[C@]7(O)C[C@H](OC(=O)[C@H](OC(=O)c8ccc(C=N[C@@H]9c%10cc%11c(cc%10[C@@H](c%10cc(OC)c(O)c(OC)c%10)[C@H]%10C(=O)OC[C@@H]%109)OCO%11)cc8)[C@@H](NC(=O)c8ccccc8)c8ccccc8)C(C)=C([C@@H](OC(C)=O)C(=O)[C@]56C)C7(C)C)cc3)C3COC(=O)C32)OCO4)cc(C)c1O (some centres not stated) | LOX IMVI melanoma | > 50 µM |
| CN(C)c1ccc(C=Nc2ccc(-c3nc4ccccc4o3)cc2)cc1 | LOX IMVI melanoma | > 100 µM |
| COc1cc(-c2c(C(C)=O)c(-c3ccccc3)n(C3OC(COC(C)=O)C(OC(C)=O)C(OC(C)=O)C3OC(C)=O)c(=S)c2C#N)ccc1O (configuration not stated) | LOX IMVI melanoma | > 100 µM |
| N#Cc1c(-c2ccccc2)cc(Nc2ccc(F)cc2)n2c1nc1ccccc12 | LOX IMVI melanoma | > 30.4 µM |
| Cc1[nH]c2ncn(N)c(=N)c2c1Cc1ccccc1 | LOX IMVI melanoma | > 100 µM |
